assay: in vitro
experimental_conditions: human, hela cells, % viability
observed_property: viability at 28.5 h, 10 µM
Give me the value, and tack the unit on after it.

Worked examples, 10 molecules total:
COC(=O)N1CC2(CCCCC2NCc2c[nH]c(C)n2)c2ccccc21 (stereo not shown) [CBK083547T]    108%
c1ccc(Nc2ccccc2Nc2ccccn2)nc1    93.5%
CCn1ncc(CN(C)C(=O)CCN2CCCCCC2=O)c1C    97.2%
Cc1cnc2[nH]c(C3CCCN(C(=O)c4cccnc4)C3)cc2c1 (stereo not shown)    86.1%
Cc1ccc(NC(=O)c2ccccc2NS(=O)(=O)c2cccc(C(=O)O)c2)cc1    122%
CN1[C@@H](CCC(=O)N2CCN(c3ccccn3)CC2)CNC(=O)[C@H]2NCC[C@H]21    95.2%
CCOC(=O)c1c(NS(=O)(=O)c2cc(Cl)sc2Cl)sc2c1CCCC2    96.1%
COc1ccc(NS(=O)(=O)c2c(Cl)cccc2Cl)c(C(=O)NCc2ccccc2)c1    79.8%
COc1ccc(SCC(=O)Nc2nccs2)cc1    83.4%
COc1cccc2c(O)cnnc12    87.2%

**Q:** State the recorded viability at 28.5 h, 10 µM for this entry: Nc1nonc1C(=O)NCCNc1ccc([N+](=O)[O-])cc1
**A:** 104%

**Q:** Need viability at 28.5 h, 10 µM of CCNC(=O)C1(Cc2ccc(-c3ccncc3)cc2)CCN(C(=O)CC2CCCCC2)CC1 , thanks.
**A:** 89.8%

**Q:** Sample CC(C)(C)c1ccc(C(=O)N2CCCCC2CO)cc1 (stereo not shown) — what was its viability at 28.5 h, 10 µM?
**A:** 86.4%
